Where these numbers come from: paper PMC5540273

Tested on: AURKA
Conditions: concentration: 1 μM, replicates: in singlicate; n = 1;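 further: KINOMEscan kinase panel screen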
endpoint: %Inh (%)
Write the answer as a number in %, unit excluded.

compound	target-of-assay	%Inh [%]
CN(c1ccc(NC(=O)Nc2cccc(Cl)c2)cc1)c1ccnc(N)n1.Cl [GW830707]	AURKA	28

What value of measured %Inh is listed for CC(C)c1nc(-c2ccc(F)c(NS(=O)(=O)c3c(F)cccc3F)c2)c(-c2ccnc(Nc3ccc(N4CCOCC4)nc3)n2)s1 [GSK1804250] ?
11

What value of measured %Inh is listed for Cn1cc(-c2ccc3c(c2)CCN3C(=O)Cc2cc(F)cc(F)c2F)c2c(N)ncnc21 [GSK2634140] ?
18

What value of measured %Inh is listed for CS(=O)(=O)c1cccc(CNc2nc(Nc3ccc4c(c3)CCC(=O)N4)ncc2C(F)(F)F)c1 ?
97.8

What value of measured %Inh is listed for Cc1ccc(O)cc1Nc1ccnc2ccc(C(C)(C)C)cc12 [GW856805] ?
30

What value of measured %Inh is listed for CN(C)CCOc1ccc(-c2cc(-c3ccc(Cl)c(O)c3)c(-c3ccncc3)[nH]2)cc1.Cl.Cl [SB-684387] ?
21

====

The following molecules are listed with their measured %Inh values.
Tested on: EPHA1
Details: concentration: 1 μM, replicates: in singlicate; n = 1
Write the answer as a number in %, unit excluded.

CCn1cnc2c(NCc3ccccc3)ncnc21 0

Now consider a different molecule.
What value of measured %Inh is listed for O=C1NC(=O)C(c2ccccc2Cl)=C1Nc1cccc(Cl)c1 ?
8

====

Tested on: PAK1
Conditions: concentration: 1 μM, replicates: in singlicate; n = 1
Each record's class is read off its %Inh using these ranges: c1: < 3%; c2: ≥ 3% and < 10%; c3: ≥ 10%

Completed entries (count: 5):
compound	assigned-category
Cl.O=C(Nc1ccc(Oc2ccc3[nH]c(NC(=O)c4ccco4)nc3c2)cc1)Nc1cc(C(F)(F)F)ccc1F	c1
Cc1ccccc1CC(=O)N1CCc2cc(-c3cn(C)c4ncnc(N)c34)ccc21	c1
CCNC(=O)/C=C/c1n[nH]c2cc(Sc3ccccc3C(=O)NC)ccc12	c1
CCn1c(-c2nonc2N)nc2c(-c3ccccc3)ncc(OCCCN)c21.O=C(O)C(F)(F)F.O=C(O)C(F)(F)F	c1
COc1cccc(CC(=O)N2CCc3cc(-c4cn(C)c5ncnc(N)c45)ccc32)c1	c3

Please let me know in which category the item COc1cccc(C2=C(Nc3cccc(O)c3)C(=O)NC2=O)c1 belongs.
c2

Please let me know in which category the item CN(C)CCNS(=O)(=O)c1ccc(-c2ccnc3[nH]ccc23)cc1 belongs.
c3

Please let me know in which category the item COC(=O)Nc1nc2ccc(Oc3ccc(CC(=O)Nc4cc(C(F)(F)F)ccc4F)cc3)cc2[nH]1 belongs.
c3

Please let me know in which category the item Cc1ccc(O)cc1Nc1ccnc2ccc(C(C)(C)C)cc12 belongs.
c3

====

System: MAP3K15
Details: concentration: 1 μM, replicates: in singlicate; n = 1
The following compounds are listed with their measured %Inh values.
Your answer should be a number followed by the unit of measure.

compound	recorded-measurement
CN(C)CCNS(=O)(=O)c1ccc(-c2ccnc3[nH]ccc23)cc1	14%

Now consider a different compound.
For MAP3K15, provide %Inh of Cc1cc(-c2c(-c3ccc(F)cc3)ncn2CCCN2CCOCC2)nc(N)n1 please.
0%
